Values from patent US9790233B2

# Test system: 15-PGDH luciferase fusion construct in V9m reporter cell line
# Experiment Notes: 15-PGDH-luciferase fusion gene reporter induction, V9m cells
# Assay type: cell-based
# Assay Context: read-out: V9M reporter activity ([…]), […]; % induction over basal level; Table 17; read-out: V9M reporter activity (7.5 μM)
Observable: activation at […] (%)
Note: unit % is implicit; provide only the numeric part.

Check out these entries, answers already filled in.
Smiles Input: COc1ccc(OC)c(NC(=O)CN(c2ccc([N+](=O)[O-])cc2)S(=O)(=O)c2ccccc2)c1
Study Target: 15-PGDH luciferase fusion construct in V9m reporter cell line
activation at […] (%): -16.8
//
Smiles Input: COc1ccc(OC)c(N(CC(=O)Nc2ccccc2F)S(=O)(=O)c2ccccc2)c1
Study Target: 15-PGDH luciferase fusion construct in V9m reporter cell line
activation at […] (%): 24.1
//
Smiles Input: COc1ccc(S(=O)(=O)N(CC(=O)Nc2ccc(Cl)cc2Cl)c2ccccc2)cc1
Study Target: 15-PGDH luciferase fusion construct in V9m reporter cell line
activation at […] (%): -0.14

Q: What value of activation at […] has been reported for the following molecule? CCc1cccc(CC)c1NC(=O)CN(c1cc(OC)ccc1OC)S(=O)(=O)c1ccc(OC)c(OC)c1
Result: 4.17

Q: What value of activation at […] has been reported for the following molecule? COc1ccc(OC)c(N(CC(=O)Nc2cccc(Br)c2)S(=O)(=O)c2ccc(OC)c(OC)c2)c1
Result: -9.81

Q: What value of activation at […] has been reported for the following molecule? COc1ccc(N(CC(=O)Nc2ccc(CC#N)cc2)S(=O)(=O)c2ccccc2)cc1Cl
Result: 63

Q: What value of activation at […] has been reported for the following molecule? COc1ccc(OC)c(N(CC(=O)Nc2ccc(I)cc2)S(=O)(=O)c2ccc(C)cc2)c1
Result: -78.3

====

# Tested on: 15-PGDH luciferase fusion construct in V9m reporter cell line
# Experiment Notes: 15-PGDH-luciferase fusion gene reporter induction, V9m cells
# Assay type: cell-based
# Assay Context: read-out: V9M-SC3 Reporter activity ([…]) (%), V9m reporter cells, […] compound; % induction of luciferase activity over basal level; read-out: V9M-SC3 Reporter activity (2.5 μM) (%)
Listed compounds paired with reported activation at […]
Note: unit % is implicit; provide only the numeric part.

Compound: COc1ccc(OC)c(CN(CC(=O)Nc2cccnc2)S(=O)(=O)c2ccccc2)c1 [SW203688]
Study Target: 15-PGDH luciferase fusion construct in V9m reporter cell line
activation at […] [%]: 12.1

Q: Which activation at […] is reported with 15-PGDH luciferase fusion construct in V9m reporter cell line for this entry: COc1ccc(OC)c(N(CC(=O)Nc2ccncc2F)S(=O)(=O)c2ccccc2)c1 [SW208004] ?
Result: 43.7

Q: Which activation at […] is reported with 15-PGDH luciferase fusion construct in V9m reporter cell line for this entry: COc1ccc(OC)c(N(CC(=O)Nc2cccnc2)S(=O)(=O)c2ccc(Br)cc2)c1 [SW203737] ?
Result: 93.4

Q: Which activation at […] is reported with 15-PGDH luciferase fusion construct in V9m reporter cell line for this entry: COc1ccc(S(=O)(=O)N(CC(=O)Nc2cccnc2)c2cc(OC)ccc2OC)cc1 [SW202940] ?
Result: 147

====

# Tested on: 15-PGDH luciferase fusion construct in Vaco503 reporter cell line
# Experiment Notes: 15-PGDH-luciferase fusion gene reporter induction, V503 cells
# Type: cell-based
# Assay Context: read-out: V503 reporter activity ([…]), […]; % induction over basal level; Table 17; read-out: V503 reporter activity (7.5 μM)
Observable: activation at […] (%)
Note: unit % is implicit; provide only the numeric part.

Check out these entries, answers already filled in.
Compound: COc1ccc(OC)c(NC(=O)CN(c2ccc([N+](=O)[O-])cc2)S(=O)(=O)c2ccccc2)c1 [compound 414195]
activation at […], %: 19.5
//
Compound: COc1ccc(OC)c(N(CC(=O)Nc2ccc(Br)cc2F)S(=O)(=O)c2ccc(C)cc2)c1 [compound 1004292]
activation at […], %: 21.2
//
Compound: CCc1ccccc1NC(=O)CN(c1ccc(OC)cc1OC)S(=O)(=O)c1ccccc1 [compound 407572]
activation at […], %: 35.9

For the next question, use this compound.
Q: What value of activation at […] has been reported for the following compound? COc1ccc(OC)c(NC(=O)CN(c2ccccc2)S(=O)(=O)c2cc(Br)ccc2OC)c1 [compound 1002654]
Result: 19.2

====

Listed compounds paired with reported activation at […]
# System: 15-PGDH luciferase fusion construct in Vaco503 reporter cell line
# Experiment Notes: 15-PGDH-luciferase fusion gene reporter induction, V503 cells
# Format: cell-based
# Assay Context: read-out: V503 reporter activity ([…]), […]; % induction over basal level; Table 17; read-out: V503 reporter activity (7.5 μM)
Note: unit % is implicit; provide only the numeric part.

Check out these entries, answers already filled in.
Compound: COc1ccc(N(CC(=O)Nc2ccc(C(=O)O)cc2)S(=O)(=O)c2ccccc2)cc1 [compound 742790]
Scale Unit: %
Result: 34.4
//
Compound: O=C(CN(c1ccccn1)S(=O)(=O)c1ccccc1)Nc1ccccc1 [compound 543512]
Scale Unit: %
Result: -4.26
//
Compound: COc1ccc(N(CC(=O)Nc2ccc(CC#N)cc2)S(=O)(=O)c2ccccc2)cc1Cl [compound 919576]
Scale Unit: %
Result: 73.7

Q: What value of activation at […] has been reported for the following compound? CCOc1ccccc1N(CC(=O)Nc1ccccc1Br)S(=O)(=O)c1ccc(C)cc1 [compound 771074]
Result: 39.5

Q: What value of activation at […] has been reported for the following compound? COc1ccc(OC)c(N(CC(=O)Nc2ccccc2Br)S(=O)(=O)c2ccc(OC)c(OC)c2)c1 [compound 924740]
Result: 52.2

Q: What value of activation at […] has been reported for the following compound? COc1ccc(OC)c(N(CC(=O)Nc2ccccc2Br)S(=O)(=O)c2ccc(C)cc2)c1 [compound 771132]
Result: 40.8

Q: What value of activation at […] has been reported for the following compound? O=C(CN(c1ccc(F)cc1)S(=O)(=O)c1ccccc1)Nc1cccnc1 [compound 414177]
Result: -5.73

Q: What value of activation at […] has been reported for the following compound? COc1ccccc1N(CC(=O)Nc1ccc(F)c(Cl)c1)S(=O)(=O)c1ccccc1 [compound 537833]
Result: 73.2

Q: What value of activation at […] has been reported for the following compound? COc1ccc(OC)c(N(CC(=O)Nc2ccc(I)cc2C)S(=O)(=O)c2ccccc2)c1 [compound 1003012]
Result: 58.5

Q: What value of activation at […] has been reported for the following compound? CCc1cccc(CC)c1NC(=O)CN(c1cc(OC)ccc1OC)S(=O)(=O)c1ccc(OC)c(OC)c1 [compound 1003429]
Result: -19.2

Q: What value of activation at […] has been reported for the following compound? COc1ccc(S(=O)(=O)N(CC(=O)Nc2ccccc2)c2ccccc2)cc1 [compound 474738]
Result: 24.6

Q: What value of activation at […] has been reported for the following compound? COc1ccc(N(CC(=O)Nc2ccc(Br)cc2)S(=O)(=O)c2ccccc2)c(OC)c1 [compound 785161]
Result: -52.5

Q: What value of activation at […] has been reported for the following compound? COc1ccc(OC)c(N(CC(=O)Nc2ccc(I)cc2)S(=O)(=O)c2ccc(C)cc2)c1 [compound 771146]
Result: -86.6

Q: What value of activation at […] has been reported for the following compound? COc1ccc(OC)c(N(CC(=O)Nc2cccc(Cl)c2)S(=O)(=O)c2ccc(OC)c(OC)c2)c1 [compound 785254]
Result: 28.3

Q: What value of activation at […] has been reported for the following compound? O=C(CN(c1ccccc1)S(=O)(=O)c1ccccc1)Nc1ccccn1 [compound 414183]
Result: 37.2

Q: What value of activation at […] has been reported for the following compound? COc1ccc(NC(=O)CN(c2ccccc2OC)S(C)(=O)=O)cc1 [compound 920847]
Result: -10.6

====

# Tested on: 15-PGDH luciferase fusion construct in Vaco503 reporter cell line
# Experiment Notes: 15-PGDH-luciferase fusion gene reporter induction, V503 cells
# Type: cell-based
# Assay Context: read-out: V503-3H9-7 reporter activity, % ([…]), […]; Table 18; read-out: V503-3H9-7 reporter activity, % (2.5 μM)
Respond with MET for activation at […] values of 20% and above, NOT MET for values below.

Consider the worked cases shown below.
Smiles Input: COc1ccc(OC)c(N(CC(=O)NC2CCCCC2)S(=O)(=O)c2ccccc2)c1
Label Class: MET
//
Smiles Input: CCc1ccccc1N(CC(=O)Nc1cccnc1)S(=O)(=O)c1ccccc1
Label Class: MET
//
Smiles Input: COc1ccc(OC)c(N(CC(=O)Nc2ccc(Cl)c(Cl)c2)S(=O)(=O)c2ccccc2)c1
Label Class: MET

Now examine the next entry.
Q: Hi, just wondering whether COc1ccc(N(CC(=O)Nc2cccnc2)S(=O)(=O)c2ccccc2)cc1 shows activation at […] of 20% or higher.
Result: NOT MET
